# target_or_test_system: Prostaglandin E2 receptor EP2 subtype (Homo sapiens)
# protocol_details: EP2 receptor modulators, dose response, cell-based, human EP2, PGE2 EC50 shift (AID 1421)
# experimental_parameters: EP2-expressing cells, PGE2 EC50 shift by compound; measured here: PGE2 EC50 at 6.7 uM compound
For each record, write down the corresponding PGE2 EC50 with compound.
Reply numerically in nM, unit not repeated.

PGE2 EC50 with compound for Prostaglandin E2 receptor EP2 subtype (Homo sapiens) with input `Cc1ccccc1Cn1c(-c2cncs2)nc2ccccc21` equals 2.57

`Cc1ccc(-c2cc3nn(-c4ccccc4)c(N)c3c(=O)o2)cc1` tested on Prostaglandin E2 receptor EP2 subtype (Homo sapiens) gave PGE2 EC50 with compound: 1.87

Readout PGE2 EC50 with compound for `Cc1ccc(OCC(=O)NNC(=O)C2CCN(c3ncccn3)CC2)cc1` , test system Prostaglandin E2 receptor EP2 subtype (Homo sapiens), was 0.81

Tested on Prostaglandin E2 receptor EP2 subtype (Homo sapiens), the item `Cc1ccccc1Nc1c(-c2ccccn2)nc2ccccn12` showed PGE2 EC50 with compound equal to 1.55

With Prostaglandin E2 receptor EP2 subtype (Homo sapiens) as the test system, COc1ccccc1N(C(=O)NCc1ccccc1)C1=NCC(C)S1 (configuration not stated) showed PGE2 EC50 with compound of 1.58

The recorded PGE2 EC50 with compound with Prostaglandin E2 receptor EP2 subtype (Homo sapiens) for `CCOP(=O)(OCC)c1nc(-c2ccc(Cl)cc2)oc1NCc1ccccc1` was 0.73

Field PGE2 EC50 with compound (system: Prostaglandin E2 receptor EP2 subtype (Homo sapiens)) for entry `C=CCOc1ccccc1CNc1ccccc1C` = 1.42

Result for `Cc1ccsc1-c1n[nH]c(=S)n1C1CCCCC1` , tested on Prostaglandin E2 receptor EP2 subtype (Homo sapiens), PGE2 EC50 with compound: 1.2

Query `CCOP(=O)(OCC)c1nc(-c2ccc(F)cc2)oc1NCc1ccccc1` on Prostaglandin E2 receptor EP2 subtype (Homo sapiens); PGE2 EC50 with compound returned: 1.09

# `COc1cc(OC)cc(-c2nc(N)n[nH]2)c1` with Prostaglandin E2 receptor EP2 subtype (Homo sapiens): PGE2 EC50 with compound is 0.8

Response field PGE2 EC50 with compound (Prostaglandin E2 receptor EP2 subtype (Homo sapiens)) for item `Cc1ccc(C)n1-n1cnc2scc(-c3cccs3)c2c1=O` : 0.97

# PGE2 EC50 with compound measured on Prostaglandin E2 receptor EP2 subtype (Homo sapiens) for item `COc1ccccc1CNC(=O)C1(c2ccc(Cl)cc2)CC1` = 0.82

---

# target_or_test_system: Prostaglandin E2 receptor EP2 subtype (Homo sapiens) (UniProt P43116)
# Sequence (P43116 whole entry, looked up): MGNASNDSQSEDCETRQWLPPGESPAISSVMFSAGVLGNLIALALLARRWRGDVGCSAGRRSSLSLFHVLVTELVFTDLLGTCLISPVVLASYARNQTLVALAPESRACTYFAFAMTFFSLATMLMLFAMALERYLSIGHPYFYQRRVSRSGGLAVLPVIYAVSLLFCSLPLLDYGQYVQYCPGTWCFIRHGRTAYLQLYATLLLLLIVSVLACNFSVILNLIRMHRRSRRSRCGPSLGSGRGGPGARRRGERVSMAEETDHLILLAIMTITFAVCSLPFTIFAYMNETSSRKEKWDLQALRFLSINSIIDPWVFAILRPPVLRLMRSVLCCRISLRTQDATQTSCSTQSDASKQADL
# protocol_details: EP2 receptor modulators, dose response, cell-based, human EP2, PGE2 EC50 shift (AID 1421)
# experimental_parameters: EP2-expressing cells, PGE2 EC50 shift by compound; measured here: PGE2 EC50 at 6.7 uM compound
Could you please report measured PGE2 EC50 with compound for the items listed next?
Kindly report the value followed by its unit.

Noted for `OCCCNc1nc(-c2ccc(Br)cc2)nnc1-c1ccc(Cl)cc1` : its PGE2 EC50 with compound reads 1.42 nM

# PGE2 EC50 with compound of `CCn1c(-c2ccccc2)c(C(=O)CCl)c2ccccc21` = 1 nM

Reported PGE2 EC50 with compound for `Cc1c(C(=O)Nc2cccc3cccnc23)oc2ccccc12` was 0.72 nM

// PGE2 EC50 with compound lookup, compound = `CCOCC(=O)Nc1sc2c(c1C(=O)OCC)CCCC2` , result: 1.18 nM

Query `Nc1[nH]n2c(=O)c3c(nc2c1N=Nc1ccccc1)CCCC3` yields PGE2 EC50 with compound of 2.09 nM

Reported PGE2 EC50 with compound of `CCCCn1c(C)cc(C)c(S(=O)(=O)c2ccccc2C)c1=O` : 1.08 nM
